The reader will find reported Kb values listed item by item below.
molecular target: ATRIA (Cavia porcellus); construct: ATRIA; from tissue; experiment: In vitro potency (pA2), beta-blocking, atria; assay type: cell-based; details: Tables 2 and 4; read-out: In-vitro potency pA2 (converted)
Sequence (H0W3H1 1-470): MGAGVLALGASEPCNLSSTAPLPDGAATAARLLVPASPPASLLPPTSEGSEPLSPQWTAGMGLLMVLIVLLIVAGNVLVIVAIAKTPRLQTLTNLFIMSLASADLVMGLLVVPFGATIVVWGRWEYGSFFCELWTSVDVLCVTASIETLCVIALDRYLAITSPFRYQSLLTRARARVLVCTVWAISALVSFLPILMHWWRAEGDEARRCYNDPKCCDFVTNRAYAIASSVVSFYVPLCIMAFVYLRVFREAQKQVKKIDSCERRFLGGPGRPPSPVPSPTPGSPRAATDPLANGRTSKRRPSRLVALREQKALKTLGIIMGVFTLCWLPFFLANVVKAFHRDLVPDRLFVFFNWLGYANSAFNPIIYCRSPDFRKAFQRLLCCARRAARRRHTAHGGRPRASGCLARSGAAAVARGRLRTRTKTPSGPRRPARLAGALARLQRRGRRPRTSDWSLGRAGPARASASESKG
quantity: Kb (nM)

[[record]]
molecule = "Cc1cc(O)c(O)cc1C(=O)OCC(O)CNC(C)(C)CNC(=O)N1CCOCC1 (centres unmarked)"
unitinfo = "nM"
valuemeasured = 2

[[record]]
molecule = "Cc1cc(O)c(O)cc1C(=O)OCC(O)CNC(C)(C)CNC(=O)C1CCOCC1 (centres unmarked)"
unitinfo = "nM"
valuemeasured = 5.01

[[record]]
molecule = "Cc1cc(O)c(O)cc1C(=O)OCC(O)CNC(C)(C)CNC(=O)C1CCCCC1 (centres unmarked)"
unitinfo = "nM"
valuemeasured = 3.98

[[record]]
molecule = "Cc1cc(O)c(O)cc1C(=O)OCC(O)CNC(C)(C)CNC(=O)C(C)C (centres unmarked)"
unitinfo = "nM"
valuemeasured = 6.31

[[record]]
molecule = "Cc1cc(O)c(O)cc1C(=O)OCC(O)CNC(C)(C)CNC(=O)C1CCOC1 (centres unmarked) [drawing 25]"
unitinfo = "nM"
valuemeasured = 1.58


---

The reader will find reported DOA (duration of action) values listed item by item below.
tested on: beta-blocking effects; test: In vivo beta-blocking potency and duration of action (DOA); settings: Tables 2 and 4
quantity: DOA (duration of action) (min)

[[record]]
molecule = "Cc1cc(O)c(O)cc1C(=O)OCC(O)CNC(C)(C)CNC(=O)C1CCOC1 (stereo not shown) [drawing 25]"
unitinfo = "min"
valuemeasured = 49

[[record]]
molecule = "Cc1cc(O)c(O)cc1C(=O)OCC(O)CNC(C)(C)CNC(=O)C(C)C (stereo not shown)"
unitinfo = "min"
valuemeasured = 42

[[record]]
molecule = "CCOc1cc(O)c(O)cc1C(=O)OCC(O)CNC(C)(C)CNC(=O)C(C)C (stereo not shown) [OEt]"
unitinfo = "min"
valuemeasured = 22

[[record]]
molecule = "Cc1cc(O)c(O)cc1C(=O)OCC(O)CNC(C)(C)CNC(=O)N1CCOCC1 (stereo not shown)"
unitinfo = "min"
valuemeasured = 60

[[record]]
molecule = "Cc1cc(O)c(O)cc1C(=O)OCC(O)CNC(C)(C)CNC(=O)C1CCCCC1 (stereo not shown)"
unitinfo = "min"
valuemeasured = 31

[[record]]
molecule = "COc1cc(O)c(O)cc1C(=O)OCC(O)CNC(C)(C)CNC(=O)C(C)C (stereo not shown) [OMe]"
unitinfo = "min"
valuemeasured = 30

[[record]]
molecule = "Cc1cc(O)c(O)cc1C(=O)OCC(O)CNC(C)(C)CNC(=O)C1CCOCC1 (stereo not shown)"
unitinfo = "min"
valuemeasured = 26


---

The reader will find reported Tmax values listed item by item below.
assay: Ocular bioavailability in rabbits; format: in vivo, New Zealand White Rabbits; conditions: rabbit, topical or ocular; cornea; 0.25% Timolol or 0.5% compound 1; read-out: Time of peak level in cornea (converted)
quantity: Tmax (min)

[[record]]
compound = "Cc1cc(O)c(O)cc1C(=O)OCC(CNC(C)(C)CNC(=O)C1CCOC1)OC(=O)C(C)(C)C (centres unmarked) [Compound 1]"
quantity = "Tmax"
valuemeasured = 5

[[record]]
compound = "CC(C)(C)NC[C@H](O)COc1nsnc1N1CCOCC1 [Timolol, reference compound]"
quantity = "Tmax"
valuemeasured = 5

